These data points were gathered from the NIST ThermoML archive (doi:10.1021/je900405j).

Below: a set of entries, each annotated with reported viscosity.
- APPLIED CONDITIONS: 355 K; 101.33 kPa; Liquid; Cone and plate viscometry
Return type: number; implicit unit mPa·s.

Below, each entry is followed by its recorded viscosity result.
* CCn1cc[n+](C)c1.N#CN=C=[N-] [1-ethyl-3-methylimidazolium dicyanamide] | 12
* CCC[n+]1ccn(C)c1C.O=S(=O)([N-]S(=O)(=O)C(F)(F)F)C(F)(F)F | 21
* CCCC[N+]1(C)CCCC1.FC(F)(F)C(F)(F)[P-](F)(F)(F)(C(F)(F)C(F)(F)F)C(F)(F)C(F)(F)F | 34

Challenge: I'd like to know its viscosity. The molecule in question is CCn1cc[n+](C)c1.F[B-](F)(F)F [1-ethyl-3-methylimidazolium tetrafluoroborate]
Response given: 15

###

- APPLIED CONDITIONS: 335 K; 101.33 kPa; Liquid; Cone and plate viscometry
Below: a set of entries, each annotated with reported viscosity.
Return type: number; implicit unit mPa·s.

Below, each entry is followed by its recorded viscosity result.
• CCn1cc[n+](C)c1.N#CN=C=[N-] [1-ethyl-3-methylimidazolium dicyanamide] = 14
• CCCC[N+]1(C)CCCC1.FC(F)(F)C(F)(F)[P-](F)(F)(F)(C(F)(F)C(F)(F)F)C(F)(F)C(F)(F)F = 53
• CCC[n+]1ccn(C)c1C.O=S(=O)([N-]S(=O)(=O)C(F)(F)F)C(F)(F)F = 29

Challenge: I'd like to know its viscosity. The compound in question is CCn1cc[n+](C)c1.F[B-](F)(F)F [1-ethyl-3-methylimidazolium tetrafluoroborate]
Response given: 18

###

- APPLIED CONDITIONS: 315 K; 101.33 kPa; Liquid; Cone and plate viscometry
± gives the expanded uncertainty stated by the source.
QUANTITY MEASURED: viscosity
Param answer (str): number followed by unit.

• CCC[n+]1ccn(C)c1C.O=S(=O)([N-]S(=O)(=O)C(F)(F)F)C(F)(F)F = 49 ± 10 mPa·s
• CCn1cc[n+](C)c1.F[B-](F)(F)F [1-ethyl-3-methylimidazolium tetrafluoroborate] = 24 ± 10 mPa·s
• CCn1cc[n+](C)c1.N#CN=C=[N-] [1-ethyl-3-methylimidazolium dicyanamide] = 16 mPa·s

Here is the next item to consider.
Challenge: I'd like to know its viscosity. The compound in question is `CCCC[N+]1(C)CCCC1.FC(F)(F)C(F)(F)[P-](F)(F)(F)(C(F)(F)C(F)(F)F)C(F)(F)C(F)(F)F`
Response given: 105 ± 10 mPa·s

###

- APPLIED CONDITIONS: 300 K; 101.33 kPa; Liquid; Cone and plate viscometry
Numbers after ± are expanded uncertainties.
QUANTITY MEASURED: viscosity

• CCn1cc[n+](C)c1.F[B-](F)(F)F [1-ethyl-3-methylimidazolium tetrafluoroborate] = 32 ± 10 mPa·s

Challenge: I'd like to know its viscosity. The compound in question is `CCC[n+]1ccn(C)c1C.O=S(=O)([N-]S(=O)(=O)C(F)(F)F)C(F)(F)F`
Response given: 85 ± 10 mPa·s

Challenge: I'd like to know its viscosity. The compound in question is CCn1cc[n+](C)c1.N#CN=C=[N-] [1-ethyl-3-methylimidazolium dicyanamide]
Response given: 19 mPa·s

Challenge: I'd like to know its viscosity. The compound in question is `CCCC[N+]1(C)CCCC1.FC(F)(F)C(F)(F)[P-](F)(F)(F)(C(F)(F)C(F)(F)F)C(F)(F)C(F)(F)F`
Response given: 209 ± 12 mPa·s

###

Below: a set of entries, each annotated with reported surface tension liquid-gas.
- APPLIED CONDITIONS: 293 K; Liquid
± gives the expanded uncertainty stated by the source.

* CCCC[N+]1(C)CCCC1.FC(F)(F)C(F)(F)[P-](F)(F)(F)(C(F)(F)C(F)(F)F)C(F)(F)C(F)(F)F | 38 ± 5 mN/m

Challenge: I'd like to know its surface tension liquid-gas. The compound in question is CCn1cc[n+](C)c1.F[B-](F)(F)F [1-ethyl-3-methylimidazolium tetrafluoroborate]
Response given: 53 ± 7 mN/m

Challenge: I'd like to know its surface tension liquid-gas. The compound in question is CCn1cc[n+](C)c1.N#CN=C=[N-] [1-ethyl-3-methylimidazolium dicyanamide]
Response given: 64 ± 9 mN/m

Challenge: I'd like to know its surface tension liquid-gas. The compound in question is `CCC[n+]1ccn(C)c1C.O=S(=O)([N-]S(=O)(=O)C(F)(F)F)C(F)(F)F`
Response given: 41 ± 6 mN/m

###

- APPLIED CONDITIONS: 325 K; 101.33 kPa; Liquid; Cone and plate viscometry
QUANTITY MEASURED: viscosity (mPa·s)
Return type: number; implicit unit mPa·s.

- CCn1cc[n+](C)c1.N#CN=C=[N-] [1-ethyl-3-methylimidazolium dicyanamide]: 15
- CCn1cc[n+](C)c1.F[B-](F)(F)F [1-ethyl-3-methylimidazolium tetrafluoroborate]: 21
- CCCC[N+]1(C)CCCC1.FC(F)(F)C(F)(F)[P-](F)(F)(F)(C(F)(F)C(F)(F)F)C(F)(F)C(F)(F)F: 72

Here is the next item to consider.
Challenge: I'd like to know its viscosity. The compound in question is `CCC[n+]1ccn(C)c1C.O=S(=O)([N-]S(=O)(=O)C(F)(F)F)C(F)(F)F`
Response given: 37

###

Below: a set of entries, each annotated with reported viscosity.
- APPLIED CONDITIONS: 330 K; 101.33 kPa; Liquid; Cone and plate viscometry
Return type: number; implicit unit mPa·s.

Below, each entry is followed by its recorded viscosity result.
• CCCC[N+]1(C)CCCC1.FC(F)(F)C(F)(F)[P-](F)(F)(F)(C(F)(F)C(F)(F)F)C(F)(F)C(F)(F)F = 62
• CCn1cc[n+](C)c1.F[B-](F)(F)F [1-ethyl-3-methylimidazolium tetrafluoroborate] = 19
• CCn1cc[n+](C)c1.N#CN=C=[N-] [1-ethyl-3-methylimidazolium dicyanamide] = 14

Challenge: I'd like to know its viscosity. The compound in question is `CCC[n+]1ccn(C)c1C.O=S(=O)([N-]S(=O)(=O)C(F)(F)F)C(F)(F)F`
Response given: 33

###

Below: a set of entries, each annotated with reported viscosity.
- APPLIED CONDITIONS: 295 K; 101.33 kPa; Liquid; Cone and plate viscometry
Return type: number; implicit unit mPa·s.

• CCn1cc[n+](C)c1.F[B-](F)(F)F [1-ethyl-3-methylimidazolium tetrafluoroborate] = 41
• CCCC[N+]1(C)CCCC1.FC(F)(F)C(F)(F)[P-](F)(F)(F)(C(F)(F)C(F)(F)F)C(F)(F)C(F)(F)F = 272
• CCC[n+]1ccn(C)c1C.O=S(=O)([N-]S(=O)(=O)C(F)(F)F)C(F)(F)F = 106

Here is the next item to consider.
Challenge: I'd like to know its viscosity. The compound in question is CCn1cc[n+](C)c1.N#CN=C=[N-] [1-ethyl-3-methylimidazolium dicyanamide]
Response given: 21

###

Below: a set of entries, each annotated with reported viscosity.
- APPLIED CONDITIONS: 365 K; 101.33 kPa; Liquid; Cone and plate viscometry
Numbers after ± are expanded uncertainties.
Param answer (str): number followed by unit.

* CCCC[N+]1(C)CCCC1.FC(F)(F)C(F)(F)[P-](F)(F)(F)(C(F)(F)C(F)(F)F)C(F)(F)C(F)(F)F | 28 ± 10 mPa·s

Challenge: I'd like to know its viscosity. The molecule in question is CCn1cc[n+](C)c1.N#CN=C=[N-] [1-ethyl-3-methylimidazolium dicyanamide]
Response given: 12 mPa·s

Challenge: I'd like to know its viscosity. The molecule in question is `CCC[n+]1ccn(C)c1C.O=S(=O)([N-]S(=O)(=O)C(F)(F)F)C(F)(F)F`
Response given: 19 mPa·s

Challenge: I'd like to know its viscosity. The molecule in question is CCn1cc[n+](C)c1.F[B-](F)(F)F [1-ethyl-3-methylimidazolium tetrafluoroborate]
Response given: 13 mPa·s

###

- APPLIED CONDITIONS: 320 K; 101.33 kPa; Liquid; Cone and plate viscometry
QUANTITY MEASURED: viscosity (mPa·s)
Return type: number; implicit unit mPa·s.

Below, each entry is followed by its recorded viscosity result.
• CCC[n+]1ccn(C)c1C.O=S(=O)([N-]S(=O)(=O)C(F)(F)F)C(F)(F)F = 42
• CCn1cc[n+](C)c1.F[B-](F)(F)F [1-ethyl-3-methylimidazolium tetrafluoroborate] = 22
• CCn1cc[n+](C)c1.N#CN=C=[N-] [1-ethyl-3-methylimidazolium dicyanamide] = 15

Here is the next item to consider.
Challenge: I'd like to know its viscosity. The compound in question is `CCCC[N+]1(C)CCCC1.FC(F)(F)C(F)(F)[P-](F)(F)(F)(C(F)(F)C(F)(F)F)C(F)(F)C(F)(F)F`
Response given: 87
